Origin of values: patent US9375005B2

# System: Puccinia recondita
# Procedure text: In vivo preventive test on Puccinia recondita (brown rust on wheat)
# Cond: dose 500 ppm; wheat plants sprayed 24 h before contamination; grading 12 days after contamination

Molecule | Eff. % [%]
Cc1ccc(NC(=O)c2c(C(F)F)nn(C)c2Cl)c2c1C(C)(C)CC2C (stereo not drawn) | 78
CC1CC(C)(C)c2c(I)ccc(NC(=O)c3c(C(F)F)nn(C)c3Cl)c21 (stereo not drawn) | 98
CC1CC(C)(C)c2cccc(NC(=O)c3c(C(F)F)nn(C)c3Br)c21 (stereo not drawn) | 100
CON=C1c2cccc(NC(=O)c3c(C(F)F)nn(C)c3F)c2CC1(C)C (mixture of isomers) | 86
CC(C)CC1CCc2c(NC(=O)c3c(C(F)F)nn(C)c3F)cccc21 (stereo not drawn) | 97
CC1Cc2cccc(NC(=O)c3c(C(F)F)nn(C)c3Cl)c2C1 (stereo not drawn) | 94
CC1CC2(CC2)c2cccc(NC(=O)c3c(C(F)F)nn(C)c3F)c21 (stereo not drawn) | 98
CC(C)C1Cc2c(NC(=O)c3c(C(F)F)nn(C)c3Cl)cccc2C1C (stereo not drawn) | 98
CC1Cc2cccc(NC(=O)c3c(C(F)F)nn(C)c3F)c2C1 (stereo not drawn) | 98
